Data provenance: ChEMBL document CHEMBL1201862

# System: KM-20L2
# ASSAY DETAILS: NCI tumour cell line growth inhibition, 48 h
Active and inactive are the calls of the source. Cut-off read from the data, not from the text of the source: active = GI50 up to about 1.1 µM and inactive = higher.
Reported values of GI50 for individual entries
ASSAY READOUT: GI50

INSERT INTO results (molecule, result) VALUES
  ('COc1ccc2c(c1)CN1CCc3c(cc(OC)c(OC)c3OC)C1C2 (stereo not drawn)', '> 100 µM (inactive)'),
  ('Cc1cccc(C(C)(C)C)c1NC(=O)CC1C(=O)Nc2ccccc2S1(=O)=O (stereo not drawn)', '9.29 µM (inactive)'),
  ('CCCCCCCCCCCC[N+]12CC[N+](C)(CC1)CC2', '14.9 µM (inactive)'),
  ('O=C(NCc1ccccc1)c1cc2ccc(O)c(O)c2cn1', '> 100 µM (inactive)'),
  ('O=C(CC1Sc2ccccc2NC1=O)Nc1cc(Cl)ccc1Cl (stereo not drawn)', '> 100 µM (inactive)'),
  ('CC[C@@H]1NC(C(=O)OC)Cc2c1[nH]c1ccccc21 (stereo partly drawn)', '> 100 µM (inactive)'),
  ('COC(=O)C(C(=O)C(=O)Nc1ccc(N)cc1[N+](=O)[O-])c1nc2ccc(Cl)cc2nc1O (stereo not drawn)', '> 100 µM (inactive)'),
  ('Cc1c(C(=O)CC(=O)C(=O)Nc2ccc(Cl)cc2)[n+]([O-])c2ccccc2[n+]1[O-]', '> 100 µM (inactive)'),
  ('Cc1cc(/N=C2\C=C(Nc3cc(C)on3)C(=O)c3ccccc32)no1', '43.7 µM (inactive)'),
  ('O=C(CCc1nnc(S)[nH]1)Nc1cc(Cl)ccc1Cl', '> 100 µM (inactive)'),
  ('O=[N+]([O-])c1ccc(C2N3CCCCC3[C@H]3CCCCN23)cc1 (stereo partly drawn)', '> 100 µM (inactive)'),
  ('CC(=O)OCCOCNC(=S)N/N=C/c1ccc([N+](=O)[O-])o1', '26.4 µM (inactive)'),
  ('COc1ccc(C2C(Cl)C(=O)N2n2cnc3ccccc3c2=O)cc1 (stereo not drawn)', '> 100 µM (inactive)'),
  ('COC(=O)C(c1n[nH]c2ccccc12)C(C(=O)OC)c1n[nH]c2ccccc12 (stereo not drawn)', '> 100 µM (inactive)'),
  ('CS(=O)(=O)N(N(CCCl)S(=O)(=O)c1ccccc1)S(C)(=O)=O', '> 100 µM (inactive)'),
  ('C[C@]12CCc3nonc3C1CC[C@@H]1C2CC[C@]2(C)NC(=O)CCC12 (stereo partly drawn)', '> 100 µM (inactive)'),
  ('O=C1CCc2ccc(O)c(c2)Oc2ccc(cc2)[C@@H]2O[C@@H]2CO1', '88.5 µM (inactive)'),
  ('Cc1ccc([N+](=O)[O-])c2c(NCCCN(C)C)ccnc12', '26.4 µM (inactive)'),
  ('O=C1C(c2ccccc2)=C(c2ccccc2)C(c2ccc(CCCCCCc3ccc(C4=C(c5ccccc5)C(=O)C(c5ccccc5)=C4c4ccccc4)cc3)cc2)=C1c1ccccc1', '> 100 µM (inactive)'),
  ('CC(C)(C)N/N=C(\C(=O)Nc1nnc(S)[nH]1)C1C(=O)Nc2ccccc2[S+]1[O-] (stereo not drawn)', '> 100 µM (inactive)'),
  ('CC(/C=C/C(=O)c1sc(-n2nc(-c3ccccc3)cc2-c2ccccc2)nc1C)=C\c1ccccc1', '20.7 µM (inactive)'),
  ('ClCCNCCNCCCl.ClCCNCCNCCCl.[O-][Cl+3]([O-])([O-])O', '67.3 µM (inactive)'),
  ('COc1cc([C@@H]2c3cc4c(cc3[C@@H](OC3OC5COC(C)OC5C(O)C3O)[C@H]3COC(=O)[C@H]23)OCO4)cc(OC)c1O (stereo partly drawn)', '70.8 µM (inactive)'),
  ('O=C1OCc2nc3c(c(-c4ccccc4C(F)(F)F)c21)C(=O)OC3', '> 100 µM (inactive)'),
  ('CC1(c2cccc(C3CCC4(C=CC3=O)OCCO4)c2)OCCO1 (stereo not drawn)', '4.07 µM (inactive)'),
  ('N#Cc1cccc(C2SCc3nc4ccccc4n32)c1 (stereo not drawn)', '> 100 µM (inactive)'),
  ('CC(=O)NC1C(O)CC(OCCCSCCN)(C(=O)O)OC1C(O)C(O)CO (stereo not drawn)', '> 100 µM (inactive)'),
  ('CCC1C(=O)OCc2c1cc1n(c2=O)Cc2ccccc2-1 (stereo not drawn)', '> 100 µM (inactive)');

###

# Tested on: A549
# ASSAY DETAILS: NCI tumour cell line growth inhibition, 48 h
Active and inactive are the calls of the source. No stated cut-off is given here; in the data, active = GI50 up to about 1.1 µM and inactive = higher.
Reported values of GI50 for individual entries
ASSAY READOUT: GI50

INSERT INTO measurements (molecule, assay_readout, result) VALUES
  ('COC(=O)c1cc(Br)c(C(=O)C(Cl)(Cl)Cl)[nH]1', 'GI50', '> 100 µM (inactive)'),
  ('O=C1NC2ON=C(c3ccccc3)C2C2ON=C(c3ccccc3)N12 (configuration not stated)', 'GI50', '> 100 µM (inactive)'),
  ('OCCSCc1ccccc1', 'GI50', '> 100 µM (inactive)'),
  ('O=c1n(-c2ccccc2)c(=O)n2n1C1CCC2CC1', 'GI50', '> 100 µM (inactive)'),
  ('O=C(NC(=O)c1cc2cc(Br)cc(Br)c2oc1=O)Oc1ccccc1', 'GI50', '> 100 µM (inactive)'),
  ('C/C(=C\C(C)COCc1ccccc1)[C@H](COCc1ccccc1)OCc1ccccc1 (some centres not stated)', 'GI50', '> 100 µM (inactive)'),
  ('O=[N+]([O-])c1ccc(C2N3CCCCC3[C@H]3CCCCN23)cc1 (some centres not stated)', 'GI50', '> 100 µM (inactive)'),
  ('CCN(c1ccc(Br)cc1)c1c(Br)c(=O)nc2ccccn12', 'GI50', '> 100 µM (inactive)'),
  ('Nc1ncnc2c1ncn2CCCCC(=O)O', 'GI50', '> 100 µM (inactive)'),
  ('CC(C)OC(=S)Nc1ccc(Cl)c(/C=N/OC(C)(C)C)c1', 'GI50', '16.9 µM (inactive)'),
  ('COc1ccc(-c2c(C(C)=O)c(-c3ccccc3)n(C3OC(COC(C)=O)C(OC(C)=O)C(OC(C)=O)C3OC(C)=O)c(=S)c2C#N)cc1 (configuration not stated)', 'GI50', '> 100 µM (inactive)'),
  ('CN(C)CCNC(=O)c1cccc2[nH]c(-c3ccccn3)nc12', 'GI50', '36.2 µM (inactive)'),
  ('Cc1c2c(cc3c1C(=O)C(=O)C1=C3OC[C@@H]1C)C(C)(C)CCC2', 'GI50', '13 µM (inactive)'),
  ('CN1C2CC(=O)CC1[C@@H]1OC(c3ccccc3)O[C@H]21 (some centres not stated)', 'GI50', '> 100 µM (inactive)'),
  ('COc1ccc2c(c1)CN1CCc3c(cc(OC)c(OC)c3OC)C1C2 (configuration not stated)', 'GI50', '> 100 µM (inactive)'),
  ('N#Cc1cccc(C2SCc3nc4ccccc4n32)c1 (configuration not stated)', 'GI50', '92.7 µM (inactive)'),
  ('CSc1c(C)[n+]([O-])c2cc(Cl)c(Cl)cc2[n+]1[O-]', 'GI50', '> 100 µM (inactive)'),
  ('CN(C)CCC(C#N)(c1ccccc1)c1ccccc1', 'GI50', '> 100 µM (inactive)'),
  ('CC(C)=CCC[C@]1(C)CC[C@]2(C)C3CCC(=C(C)C)[C@@H](CCCO)[C@]3(C)CC[C@@]2(C)C1 (some centres not stated)', 'GI50', '52.6 µM (inactive)'),
  ('COC(=O)C(Cc1cc(OC)c(OC)c(OC)c1)(NC(=O)c1ccccc1)P(=O)(OC)OC (configuration not stated)', 'GI50', '> 100 µM (inactive)'),
  ('Cc1nc2cccc(F)c2c(=O)n1-c1nnc(C(F)(F)F)s1', 'GI50', '> 10 µM (inactive)'),
  ('CCOC(=O)Cc1nc2c(O)ncnc2n1C1OC(COC(C)=O)C(OC(C)=O)C1OC(C)=O (configuration not stated)', 'GI50', '> 100 µM (inactive)');

###

Reported values of GI50 for individual entries
# Test system: A549
# ASSAY DETAILS: NCI tumour cell line growth inhibition, 48 h
The source made the active and inactive calls. Rule as the data show it: active = GI50 up to about 1.1 µM and inactive = higher.
ASSAY READOUT: GI50

INSERT INTO assay_data (molecule, assay_readout, result) VALUES
  ('CCCCC1Cc2cc(OC)ccc2-c2n1c1cc(OC)ccc1[n+]2C.CCCCC1Cc2cc(OC)ccc2-c2n1c1ccc(OC)cc1[n+]2C (stereo unspecified)', 'GI50', '1.48 µM (inactive)'),
  ('NC(=O)c1csc(C2(O)COC(CO)C2O)n1 (stereo unspecified)', 'GI50', '> 100 µM (inactive)'),
  ('Clc1ccccc1-c1nc2cc(C34CC5CC(CC(C5)C3)C4)ccc2[nH]1', 'GI50', '11.4 µM (inactive)'),
  ('OC1(c2ccc(Cl)cc2)c2ccc(CN3CCCC3)cc2C2=NCCN21 (stereo unspecified)', 'GI50', '17.1 µM (inactive)'),
  ('O=c1ccc2c(Cl)sc(Cl)c2[nH]1', 'GI50', '> 100 µM (inactive)'),
  ('C=C(CO)CC(O)c1ccccc1 (stereo unspecified)', 'GI50', '> 100 µM (inactive)'),
  ('COc1ccc(/C=C(\NC(=O)c2ccccc2)C(=O)NN(C)c2ccnc3cc(Cl)ccc23)cc1OC', 'GI50', '33 µM (inactive)'),
  ('CC1(C)CC(=O)C(C(c2cccc(O)c2O)C2C(=O)CC(C)(C)CC2=O)C(=O)C1', 'GI50', '> 100 µM (inactive)'),
  ('C[C@]12CC[C@H]3[C@@H](CCC4=CC(=O)CC[C@@H]43)[C@@H]1CC[C@@H]2OC1(O)C(=O)c2ccccc2C1=O', 'GI50', '> 100 µM (inactive)'),
  ('Cc1cc2c(cc1-c1cc3c(cc1C)C(C(C)C)=C(O)C(=O)/C3=C\Nc1ccccn1)/C(=C/Nc1ccccn1)C(=O)C(O)=C2C(C)C', 'GI50', '31.3 µM (inactive)'),
  ('COC(=O)[C@@H]1Cc2cc(O)c(O)cc2C2(CCN(C)CC2)O1', 'GI50', '> 10 µM (inactive)'),
  ('O=C1c2ccccc2-c2ccccc2C(=O)C1(Br)Br', 'GI50', '17.7 µM (inactive)'),
  ('CN1C(=O)C2C(C1=O)C1(O)c3ccccc3C2(N)c2ccccc21 (stereo unspecified)', 'GI50', '> 100 µM (inactive)'),
  ('CC(NC(=O)/C(=C/c1ccccc1O)NC(=O)c1ccccc1)C(=O)O (stereo unspecified)', 'GI50', '43.1 µM (inactive)'),
  ('CN(C)C(=S)/N=c1\sn(C)/c(=N\C(=S)N(C)C)n1C', 'GI50', '82.8 µM (inactive)'),
  ('O=C1CC(O)c2c1csc2Br (stereo unspecified)', 'GI50', '28.4 µM (inactive)'),
  ('N/C(=N\O)N/N=C/c1cc(Br)cc(Br)c1O', 'GI50', '5.27 µM (inactive)'),
  ('CC(C)NC(=O)OCc1nnn2c1C(OC(=O)NC(C)C)CC2 (stereo unspecified)', 'GI50', '> 100 µM (inactive)'),
  ('CCc1cc2c(c3c1CCC3=O)CC1(Cc3ccc(C)cc3C1)C2 (stereo unspecified)', 'GI50', '18.2 µM (inactive)'),
  ('O=C(OCc1ccccc1)N1CCNCCN(C(=O)OCc2ccccc2)CCNCC1', 'GI50', '63.2 µM (inactive)'),
  ('Cc1ccc(/N=N/C(=N/NC(=O)c2cc(Cl)ccc2C(=O)c2ccccc2)c2ccc(N(CCC#N)CCC#N)cc2C)cc1', 'GI50', '11.5 µM (inactive)');
